Recorded values, source patent US20080051418A1.

Below, each entry is listed alongside its reported melting point.

Ask: # get_value(readout='melting point', item= CCOc1ccc(CCCOc2c(CC(=O)O)cccc2OC)c(Oc2ccc(Cl)cc2Cl)n1 )
Result: 89 to 91 °C

----------
# TESTED_ON: PPARγ-RXRα heterodimer (Homo sapiens)
# Construct: expressed in transfected cells; host or cells: CHO-K1
# Sequence (P37231 whole entry): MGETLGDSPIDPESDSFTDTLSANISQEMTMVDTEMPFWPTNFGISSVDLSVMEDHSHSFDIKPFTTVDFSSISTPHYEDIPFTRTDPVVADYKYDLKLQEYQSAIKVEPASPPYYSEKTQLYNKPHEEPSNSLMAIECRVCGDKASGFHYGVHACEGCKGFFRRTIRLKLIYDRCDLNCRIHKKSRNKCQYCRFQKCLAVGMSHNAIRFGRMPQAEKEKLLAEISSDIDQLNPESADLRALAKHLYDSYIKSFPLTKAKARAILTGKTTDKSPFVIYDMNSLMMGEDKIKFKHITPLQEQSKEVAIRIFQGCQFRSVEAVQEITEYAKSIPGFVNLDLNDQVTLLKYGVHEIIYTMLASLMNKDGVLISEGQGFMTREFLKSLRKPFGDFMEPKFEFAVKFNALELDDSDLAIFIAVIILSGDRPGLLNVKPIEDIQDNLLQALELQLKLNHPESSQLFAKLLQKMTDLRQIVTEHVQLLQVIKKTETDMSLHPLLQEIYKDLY
# Sequence (P19793 whole entry partner): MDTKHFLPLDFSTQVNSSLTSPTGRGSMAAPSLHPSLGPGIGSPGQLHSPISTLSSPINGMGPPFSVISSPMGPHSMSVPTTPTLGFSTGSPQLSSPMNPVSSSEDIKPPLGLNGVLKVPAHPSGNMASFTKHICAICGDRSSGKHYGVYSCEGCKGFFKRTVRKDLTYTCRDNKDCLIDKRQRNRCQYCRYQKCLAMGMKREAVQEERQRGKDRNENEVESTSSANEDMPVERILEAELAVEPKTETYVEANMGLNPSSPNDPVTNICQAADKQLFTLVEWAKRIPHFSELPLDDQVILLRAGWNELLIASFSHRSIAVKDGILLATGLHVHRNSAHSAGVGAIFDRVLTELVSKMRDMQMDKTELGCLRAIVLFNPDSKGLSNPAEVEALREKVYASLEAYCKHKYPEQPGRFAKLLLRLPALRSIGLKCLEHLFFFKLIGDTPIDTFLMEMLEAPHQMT
# TEST: PPARγ-RXRα heterodimer ligand activity (luciferase reporter)
# Assay type: cell-based
# EXPERIMENTAL_CONTEXT: PPARγ:RXRα:4ERPP/CHO-K1 cells, 18-24 hr, concentration showing 50% of the maximum induction rate
pEC50: −log10 of the molar value.
REPORTED_METRIC: pEC50

>  <COMPOUND>
Cc1nc(OCCCc2cc(OC(C)C)nn2Cc2ccc(Cl)cc2Cl)c(CC(=O)O)s1

>  <pEC50>
7.70

$$$$
>  <COMPOUND>
CCn1nc(OCCCCc2ccc(OC(C)C)cc2Oc2ncc(C(F)(F)F)cc2Cl)cc1CCC(=O)O

>  <pEC50>
8.15

$$$$
>  <COMPOUND>
CC(C)Oc1ccc(CCCOc2cc(CCC(=O)O)n(-c3ccccc3)n2)c(Oc2ncc(Cl)cc2Cl)c1

>  <pEC50>
8.92

$$$$
>  <COMPOUND>
COc1cccc(CC(=O)O)c1OCCCc1cc(OC(C)C)nn1Cc1ccc(C(F)(F)F)cc1Cl

>  <pEC50>
8.92

$$$$
>  <COMPOUND>
COc1cccc(CC(=O)O)c1OCCCc1cc(C(C)C)nn1Cc1ccc(Cl)cc1Cl

>  <pEC50>
8.57

$$$$

(A) CC(C)Oc1ccc(CCCOc2cc(CCC(=O)O)n(C3CCCCC3)n2)c(Oc2ncc(C(F)(F)F)cc2Cl)c1
(B) CC(C)c1cc(CCCOc2nn(Cc3ccccc3)cc2CC(=O)O)n(Cc2ccc(C(F)(F)F)cc2Cl)n1 [Example 75]
(C) CC(C)Oc1ccc(CCCOc2nn(Cc3ccccc3)cc2CC(=O)O)c(Oc2ncc(C(F)(F)F)cc2Cl)c1
(D) CC(C)Oc1ccc(CCCOc2cc(CCC(=O)O)n(C(C)C)n2)c(Oc2ncc(C(F)(F)F)cc2Cl)c1
(E) CCCOc1cc(CCCOc2c(CC(=O)O)cccc2OC)n(Cc2ccc(C(F)(F)F)cc2)n1
Ask: Rank order required: pEC50, descending. Answer with the labels in sequence, matching the requested order.
Result: C, B, A, D, E
(C: 9.12, B: 8.72, A: 8.43, D: 8.15, E: 7.64)

(I) CCn1nc(OCCCc2ccc(OCCOC)cc2Oc2ncc(C(F)(F)F)cc2Cl)cc1CCC(=O)O
(II) CC(C)Oc1ccc(CCCOc2nn(Cc3ccccc3)cc2CC(=O)O)c(Oc2ncc(Cl)cc2Cl)c1
Ask: Please compare: I and II . Report which one has the smaller pEC50 value. Select an item and report its label.
Result: I

(1) COCCOc1ccc(CCCOc2nn(C)cc2CC(=O)O)c(Oc2ncc(C(F)(F)F)cc2Cl)c1
(2) CCn1cc(CC(=O)O)c(OCCCc2ccc(OC(C)C)cc2Oc2ncc(C(F)(F)F)cc2Cl)n1
(3) COc1ccccc1Cn1nc(OC(C)C)cc1CCCOc1c(CC(=O)O)cccc1OC
Ask: Rank order required: pEC50, descending. Answer with the labels in sequence, matching the requested order.
Result: 2, 1, 3
